# assay.comment: A CellTox Green Cytotoxicity Assay to monitor cytotoxicity in HepG2 cells - 40 hour (AID 1224879); further: nearly all actives have a fitted effect of over 40% in size
# condition.notes: CellTox Green fluorescence; series mostly up to 76.8 µM
Results filed as inconclusive are left out. Activity calls are given as the source filed them. The call rests on the fitted dose curve; in most records, active means well fitted activation curve with a large enough effect in the repeat runs; inconclusive means weak or mixed curves; inactive means flat fitted curve, though single readings scatter.
The reply should name one outcome from TRUE for active, FALSE for inactive

Solved entries:
CCCCCCCCCCCCCCCC(=O)OC/C=C(C)/C=C/C=C(C)/C=C/C1=C(C)CCCC1(C)C | FALSE
O=CNc1ccccc1 | FALSE
C=C(C)C(=O)OC(C)C | FALSE

Per the assay record, what outcome was assigned to "CCCCCCCCCC(=O)OCC" ?
FALSE

Per the assay record, what outcome was assigned to "C[C@H](CCC(=O)O)[C@H]1CC[C@H]2[C@@H]3[C@H](O)C[C@@H]4C[C@H](O)CC[C@]4(C)[C@H]3CC[C@]12C" ?
FALSE

Per the assay record, what outcome was assigned to "CCCC(C)C" ?
FALSE

Per the assay record, what outcome was assigned to "NC(=S)N/N=C/c1cccnc1" ?
FALSE

Per the assay record, what outcome was assigned to "Cc1cccc(Oc2ccccc2)c1" ?
TRUE

Per the assay record, what outcome was assigned to "CCOc1cc(OCC)c(C(=O)CCC(=O)O)cc1OCC" ?
FALSE

Per the assay record, what outcome was assigned to "Cc1ccccc1N=Nc1ccc(N=Nc2c(O)ccc3ccccc23)c(C)c1" ?
FALSE

Per the assay record, what outcome was assigned to "CC(C)(C)C(=O)OCOP(=O)(COCCn1cnc2c(N)ncnc21)OCOC(=O)C(C)(C)C" ?
FALSE

Per the assay record, what outcome was assigned to CCc1nn(C2CCCCC2)c2cc(C3(C#N)CCC(C(=O)O)CC3)ccc12 (stereo not drawn) ?
FALSE

Per the assay record, what outcome was assigned to "Nc1nc(N)c(-c2ccccc2)s1" ?
FALSE

====

# assay.comment: qHTS assay to test for compound auto fluorescence at 590 nm (red) in HEK293 cell free culture (AID 720683); further: on the % scale 0 is the no-effect control and ±100 the full control effect
# condition.notes: cell-free medium autofluorescence, Ex540/Em590 red; series mostly up to 91.3 µM
Activity calls are given as the source filed them. Calls follow the shape of the dose curve; as a rule, active = well fitted curve in the direction sought with a large enough effect in the repeat runs; inconclusive = weak or mixed curves; inactive = flat fitted curve, though single readings scatter.
readout.type: fluorescence, % of fluorescent control

O=C(O)Cn1c(C(=O)Nc2nc(-c3ccccc3Cl)cs2)cc2ccccc21 | inactive
CCC(=O)OC(C)(C)C1CC=C(C)CC1 (configuration not stated) | inactive
O=C(NS(=O)(=O)/C=C/c1cccs1)c1ccc(F)cc1Br | inactive
CCCCCCCCCO | inactive
CN1CCC(OC(c2ccccc2)c2ccccc2)CC1 | 0.167% [at 18.6 µM] (inactive)

Any idea what its fluorescence, % of fluorescent control is? The compound is CCN(CC)CCNC(C(=O)OCCC(C)C)c1ccccc1 (configuration not stated)
inactive

Any idea what its fluorescence, % of fluorescent control is? The compound is "Oc1ccc(O)c2c(O)cccc12"
inactive

====

# target.desc: Cytochrome P450 3A4 (Homo sapiens)
# assay.comment: Cytochrome P450 Family 3 Subfamily A Member 4 (CYP3A4) small molecule antagonists: luciferase reporter qHTS assay (AID 1671201); further: nearly all actives have a fitted effect of over 50% in size
# condition.notes: P450-Glo CYP3A4 enzyme, luciferin luminescence, 1 h; series mostly up to 115 µM
Records with an inconclusive call do not appear. The source made the active and inactive calls. Calls come from the whole dose curve; as a rule, active = well fitted inhibition curve with a large enough effect in the repeat runs; inconclusive = weak or mixed curves; inactive = no such curve, though single readings can be large or run the other way.
The reply should name one outcome from active, inactive

CCN(CC)CCc1nc(-c2ccccc2)no1 | inactive

Per the assay record, what outcome was assigned to "C=CCCCCCC" ?
inactive

Per the assay record, what outcome was assigned to "O=C(O)c1cn(C2CC2)c2cc(Cl)c(F)cc2c1=O" ?
inactive

Per the assay record, what outcome was assigned to "FC(F)(F)C(F)(F)C(F)(F)C(F)(F)C(F)(F)C(F)(F)CCI" ?
inactive

Per the assay record, what outcome was assigned to CC1=CCC(C(C)C)C=C1 (configuration not stated) ?
active

Per the assay record, what outcome was assigned to O=C=NC1CCC(CC2CCC(N=C=O)CC2)CC1 (configuration not stated) ?
active

Per the assay record, what outcome was assigned to "N#CCCNCCC#N" ?
inactive
